# Tested on: P12-Ichikawa
# Test details: cell viability relative to DMSO control; higher = less cytotoxic
# Particulars: RPMI 5 mM glucose + 10% FBS; 48 h; 0.000781 µM
Each entry below carries its reported cell viability.
Just the number in %, nothing appended.

Solved entries:
1) CC1=C(/C=C/C(C)=C/C=C/C(C)=C/C=C/C=C(C)/C=C/C=C(C)/C=C/C2=C(C)CCCC2(C)C)C(C)(C)CCC1; 111
2) C=C(C)[C@@H]1CC[C@]2(C(=O)O)CC[C@]3(C)[C@H](CC[C@@H]4[C@@]5(C)CC[C@H](O)C(C)(C)[C@@H]5CC[C@]43C)[C@@H]12; 108

Data request: Under P12-Ichikawa: cell viability value of O=C([O-])C(O)Cc1ccc(O)c(O)c1 (stereo not drawn) ?
Data returned: 101

Data request: Under P12-Ichikawa: cell viability value of "C[C@@H](NC1=CC=CC=C1C(O)=O)C/2=C/C(=C\N3C(=O)/C=C(\N=C23)N4CCOCC4)C" ?
Data returned: 82.4

Data request: Under P12-Ichikawa: cell viability value of COC1=C(N2CCNC(C)C2)C(=CC3=C1N(\C=C(C(O)=O)/C3=O)C4CC4)F (stereo not drawn) ?
Data returned: 102

Data request: Under P12-Ichikawa: cell viability value of CN(C)CCOc1cc(-c2cn[nH]c2)ccc1NC(=O)C1COc2ccccc2O1 (stereo not drawn) ?
Data returned: 107

Data request: Under P12-Ichikawa: cell viability value of CNC1CCC(N(Cc2cccc(-c3ccncc3)c2)C(=O)c2sc3ccccc3c2Cl)CC1 (stereo not drawn) ?
Data returned: 89.2

====

# Test system: P12-Ichikawa
# Test details: cell viability relative to DMSO control; higher = less cytotoxic
# Particulars: HPLM + 10% dialyzed FBS; 48 h; 0.00702 µM
Readout: cell viability (%)
Just the number in %, nothing appended.

Solved entries:
1) C[C@@H](NC1=CC=CC=C1C(O)=O)C/2=C/C(=C\N3C(=O)/C=C(\N=C23)N4CCOCC4)C; 101
2) CNC1CCC(N(Cc2cccc(-c3ccncc3)c2)C(=O)c2sc3ccccc3c2Cl)CC1 (stereo not drawn); 107
3) CC(C)(C)C(=O)Oc1ccc2c(c1)nc(NC(=O)c1cccc([N+](=O)[O-])c1)n2CCCO; 118

Data request: Which cell viability reading was recorded for the compound "CC(C)OC(=O)OCOP(=O)(CO[C@H](C)Cn1cnc2c(N)ncnc21)OCOC(=O)OC(C)C.O=C(O)C=CC(=O)O" ?
Data returned: 73.1

Data request: Which cell viability reading was recorded for the compound CN(C)CCOc1cc(-c2cn[nH]c2)ccc1NC(=O)C1COc2ccccc2O1 (stereo not drawn) ?
Data returned: 103

Data request: Which cell viability reading was recorded for the compound "CC(=O)O.Cc1c(-c2ccc(O)cc2)n(Cc2ccc(OCCN3CCCCCC3)cc2)c2ccc(O)cc12" ?
Data returned: 99.2

Data request: Which cell viability reading was recorded for the compound CCN(CC)CC#CCOC(=O)C(O)(c1ccccc1)C1CCCCC1 (stereo not drawn) ?
Data returned: 113

Data request: Which cell viability reading was recorded for the compound CC\1=C(C(\N=C(/N1)C2=CC(=NC=C2)Cl)C3=C(F)C=C(Cl)C=C3)/C(=O)NC4=C(F)C=C5[NH]N=CC5=C4 (stereo not drawn) ?
Data returned: 109

====

# System: NOMO1
# Test details: cell viability relative to DMSO control; higher = less cytotoxic
# Particulars: RPMI 5 mM glucose + 10% FBS; 48 h; 5.12 µM
Readout: cell viability (%)
Just the number in %, nothing appended.

Solved entries:
1. OC1=CC=C(C=C1)\C2=C\OC3=C(C=CC(=C3)O)C2=O; 103
2. O=C(NCC[S+](=O)([O-])c1ccc(C(F)(F)F)cn1)c1ccc(Cl)cc1; 130
3. CCC[C@H](NC(=O)/C(C#N)=C/c1cccc(Br)n1)c1ccccc1; 104

Kindly review the next molecule as well.
Data request: Which cell viability reading was recorded for the molecule "CN(Cc1cnc2nc(N)nc(N)c2n1)c1ccc(C(=O)N[C@@H](CCC(=O)O)C(=O)O)cc1" ?
Data returned: 73.1
